Ref: paper PMC11931385

Below, each of the binders is paired with its reported pKd value.
Assay System: T1, Rb^P H673P (human, UniProt P06400 380-788, H673P)
T1 construct: also called variant 54
T1 sequence (looked up): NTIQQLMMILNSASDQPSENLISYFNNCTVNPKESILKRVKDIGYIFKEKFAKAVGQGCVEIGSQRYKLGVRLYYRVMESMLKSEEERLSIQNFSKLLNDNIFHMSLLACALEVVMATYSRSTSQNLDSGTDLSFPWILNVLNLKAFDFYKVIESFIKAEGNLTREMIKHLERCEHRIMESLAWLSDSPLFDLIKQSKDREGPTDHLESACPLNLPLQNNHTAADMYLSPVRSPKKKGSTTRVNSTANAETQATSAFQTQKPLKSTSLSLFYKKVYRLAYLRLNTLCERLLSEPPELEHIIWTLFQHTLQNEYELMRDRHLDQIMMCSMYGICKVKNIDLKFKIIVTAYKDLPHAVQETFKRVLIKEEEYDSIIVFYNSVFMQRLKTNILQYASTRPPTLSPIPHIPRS
Protocol Details: fluorescence polarisation; 25 °C; unlabeled Rb^P titrated against 1.5 nM TMR-E2F1^TD or 7.5 nM TMR-E7^LxCxE; 25 mM Tris pH 8.0, 200 mM NaCl, 1 mM DTT, 0.1% Tween-20; 2 min incubation; quadratic fit; apparent Kd for the variants, Kd for WT
Measurement Parameters: both partners purified
No end group written: not given here. TMR = tetramethyl rhodamine dye
On this scale, pKd is minus log10 of a concentration expressed in M (mol/L).

{"columns": ["Binder", "pKd"],
 "data": [
  ["DLYCYEQLN (also: TMR label, position not given here, source: synthetic peptide, bought: GenScript) [TMR-E7^LxCxE, LxCxE peptide of the E7 oncoprotein from HPV]", 7.62]
]}

Consider the record given below.
## Task Would you mind telling me what pKd value was observed for {TMR}-GEGIRDLFDCDFGDLTPLD (also called E2F^TD; source: synthetic peptide, bought: GenScript) [TMR-E2F1^TD, peptide of the E2F1 transactivation domain] ?
## Result 7.38
